measurement_protocol: Open-label drug-drug interaction study in healthy adults: plasma dapagliflozin PK
Type: in vivo, human
measurement_conditions: human, plasma, 10 mg, plasma; single 10 mg DAPA alone, Day 1; n = 16; read-out: AUC0-inf, geometric LSMs (DAPA alone)
outcome_measure: AUC(0-inf) (ng·h/mL)
State just the number; it will be interpreted in ng·h/mL.

Query: Which AUC(0-inf) is listed for "CCOc1ccc(Cc2cc([C@@H]3O[C@H](CO)[C@@H](O)[C@H](O)[C@H]3O)ccc2Cl)cc1" ?
Result: 534

###

measurement_protocol: Open-label drug-drug interaction study in healthy adults: plasma dapagliflozin PK
Format: in vivo, human
measurement_conditions: human, plasma, 10 mg, plasma; single 10 mg DAPA alone, Day 1; n = 20; read-out: AUC0-t, geometric LSMs (DAPA alone)
outcome_measure: AUC(0-t) (ng·h/mL)
State just the number; it will be interpreted in ng·h/mL.

Query: Which AUC(0-t) is listed for CCOc1ccc(Cc2cc([C@@H]3O[C@H](CO)[C@@H](O)[C@H](O)[C@H]3O)ccc2Cl)cc1 [DAPA, dapagliflozin] ?
Result: 509
